target_system: Cyclin-dependent kinase 4/Cyclin D1
procedure_summary: Inhibition of CDK4/Cyclin D1 (unknown origin)
measured_property: IC50

Dear colleague, please send me the reported IC50 for COc1ccc(/C=C\c2cc(OC)c(OC)c(OC)c2)cc1NC(=O)CCC(=O)N[C@@H](CCCNC(=N)N)C(=O)O when you can.
> 10 µM

###

The listing below reports pIC50 for molecules tested on Neuropilin-1 (Homo sapiens).
Answers are plain numbers, as −log10 of the molar value.

Worked examples, 2 molecules total:
| structure | measured |
| --- | --- |
| COc1ccc(/C=C\c2cc(OC)c(OC)c(OC)c2)cc1NC(=O)CCCCCCC(=O)N[C@@H](CCCNC(=N)N)C(=O)O | 4.82 |
| COc1ccc(/C=C\c2cc(OC)c(OC)c(OC)c2)cc1NC(=O)/C=C/C(=O)N[C@@H](CCCNC(=N)N)C(=O)O | 5.41 |

Dear colleague, please send me the reported pIC50 for NC(N)=NCCC[C@H](NC(=O)c1sccc1NS(=O)(=O)c1cccc2nsnc12)C(=O)O when you can.
5.54

Just for reference, BindingDB's records for doi:10.1021/acs.jmedchem.3c01572 is where these values come from.
